- target_desc: Gal-1 (Homo sapiens)
- Construct: made in house; host or cells: E. coli BL21(DE3)
- Sequence (P09382 whole entry): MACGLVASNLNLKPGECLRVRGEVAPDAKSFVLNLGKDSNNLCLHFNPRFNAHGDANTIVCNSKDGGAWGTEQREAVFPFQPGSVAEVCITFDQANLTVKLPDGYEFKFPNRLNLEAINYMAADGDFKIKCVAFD
- method_summary: Pull-down assay with immobilized protein and LSM libraries
- Format: binding
- measurement_setup: H12 library; 1:1 binding assumed; read-out: Surface mapping KD (apparent)
Here the recorded Kd is given for each entry.
property_label: Kd

1) CC(C)C[C@@H](CC(=O)N[C@H]1CCC[C@@H]1C(=O)N[C@H]1CCC[C@@H]1C(=O)N[C@@H](C)CC(=O)N[C@H]1CCC[C@@H]1C(=O)N[C@H]1CCC[C@@H]1C(N)=O)NC(=O)[C@H]1CCC[C@@H]1NC(=O)[C@H]1CCC[C@@H]1N [H12 LA]	438 µM
2) CSCC[C@@H](CC(=O)N[C@H]1CCC[C@@H]1C(=O)N[C@H]1CCC[C@@H]1C(=O)N[C@@H](CC(=O)O)CC(=O)N[C@H]1CCC[C@@H]1C(=O)N[C@H]1CCC[C@@H]1C(N)=O)NC(=O)[C@H]1CCC[C@@H]1NC(=O)[C@H]1CCC[C@@H]1N [H12 MD]	169 µM
3) CSCC[C@@H](CC(=O)N[C@H]1CCC[C@@H]1C(=O)N[C@H]1CCC[C@@H]1C(=O)N[C@@H](CC(N)=O)CC(=O)N[C@H]1CCC[C@@H]1C(=O)N[C@H]1CCC[C@@H]1C(N)=O)NC(=O)[C@H]1CCC[C@@H]1NC(=O)[C@H]1CCC[C@@H]1N [H12 MN]	195 µM
4) NC(=O)C[C@@H](CC(=O)N[C@H]1CCC[C@@H]1C(=O)N[C@H]1CCC[C@@H]1C(N)=O)NC(=O)[C@H]1CCC[C@@H]1NC(=O)[C@H]1CCC[C@@H]1NC(=O)C[C@H](Cc1ccccc1)NC(=O)[C@H]1CCC[C@@H]1NC(=O)[C@H]1CCC[C@@H]1N [H12 FN]	226 µM
